Test: basal CRE-LacZ reporter activity in PC12 – cell-based, unstimulated, primary screen (AID 1145)
Conditions: no forskolin, luminescence, 4.5 h, higher = more signal, called active from +8 up or from −8 down
Calls of active or inactive are those of the source.
Measure Name: z-score

In: Given the compound O=C1OCCC=C[C@H]2OC34C=CCN(Cn5nnc6ccccc65)C(=O)[C@H]3N(CCCO)C(=O)[C@@H]4C12 (stereo partly specified) , write its reported z-score.
Out: -0.903 (inactive)

In: Give the reported value of z-score for this record: CCOC(=O)C[C@H]1[C@H](OC(=O)c2ccccc2-c2ccccc2)[C@@H](NC(=O)c2ccc3ccccc3n2)c2cc(OCCCO)ccc2N1C(=O)Cc1ccc(OC)cc1
Out: 1.03 (inactive)

In: Identify the reported z-score for the following entry. COc1cccc(C)c1NC(=O)O[C@H]1[C@H](OC(=O)Nc2ccc3c(c2)OCO3)[C@@H](OC(=O)Nc2ccc3c(c2)OCO3)[C@@H](OC)O[C@@H]1CO
Out: 1.45 (inactive)

In: Tell me measured z-score for COCCOC(=O)N1C(=O)[C@@]2(c3cc(C#CC4(O)CCCCCC4)ccc31)[C@H](C(=O)Nc1nc3ccccc3s1)[C@H]1C(=O)O[C@H](c3ccccc3)[C@H](c3ccccc3)N1[C@@H]2c1ccc(O)cc1 please.
Out: 0.245 (inactive)

In: // Input: O=C1OCCC=C[C@H]2OC34C=CCN(c5ccc6ccccc6c5)C(=O)[C@H]3N(CCCO)C(=O)[C@@H]4C12 (stereo partly specified) . Output its z-score only.
Out: -0.0778 (inactive)

In: Return reported z-score. Input compound: CC(C)=C1C(=O)C(c2ccccc2)=C2CN3C(=O)N(CCc4ccccc4)C(=O)[C@]3(Cc3ccc(C(F)(F)F)cc3)[C@H]21
Out: 0.966 (inactive)
